Quick reference for MIC among some compounds
tested on: Staphylococcus aureus; test: Antibacterial activity against Staphylococcus aureus KCTC 209 after 24 hrs by broth microdilution method; assay type: functional; conditions: KCTC 209, 24 h
Could you give me the number in µg/mL? Just the number is fine.

Some compounds with recorded MIC:
* Cc1ccc(COc2ccc3nc(Cl)c(/C=C4\SC(=S)N([C@@H](CC(C)C)C(=O)O)C4=O)cc3c2)cc1 | 8
* CC(C)C[C@@H](C(=O)O)N1C(=O)/C(=C/c2cc3cc(OCc4ccc(F)cc4)ccc3nc2Cl)SC1=S | 8
* CCC(C)[C@@H](C(=O)O)N1C(=O)/C(=C/c2cc3cc(OCc4ccccc4Cl)ccc3nc2Cl)SC1=S (some centres undefined) | 64

Task: Name the recorded MIC of CCC(C)[C@@H](C(=O)O)N1C(=O)/C(=C/c2cc3cc(OCc4cccc(F)c4)ccc3nc2Cl)SC1=S (some centres undefined) , assay system Staphylococcus aureus.
Output: 32
